Each record here notes measured activity, negative = inhibition.
test.target: Cytochrome P450 2C9 (Homo sapiens)
test.method.notes: Cytochrome panel assay with activity outcomes; further: on the % scale 0 is the no-effect control and ±100 the full control effect
applied.conditions: recombinant CYP, pro-luciferin dealkylation, luminescence, p450-cyp2c9; series mostly up to 57.1 µM
Hit rate of the full screen: of about 16,000 compounds, about 4,000 (25%) were called active. Roughly 26% stayed inconclusive and do not appear here. The list is a sample of the results.
value.kind: activity, negative = inhibition

{"chemical.structure": "C[C@@H](c1ccccc1)N1C(=O)[C@H]2[C@H]3[C@H](O)[C@H](O)C/C(=N/OC[C@@H](O)COCc4ccco4)[C@H]3CC[C@@H]2C1=O", "result": "10.7% [at 11.4 µM] (inactive)"}
{"chemical.structure": "NCCSS(=O)(=O)CCN", "result": "-9.3% [at 11.4 µM] (inactive)"}
{"chemical.structure": "COc1ccccc1CNc1ncnc2ccc(-c3ccc(C(=O)N(C)C)cc3)cc12", "result": "0.573% [at 2.29 µM] (inactive)"}
{"chemical.structure": "CC[C@H]1CC[C@H]2[C@@H]3CC=C4C[C@H](OC(C)=O)[C@@H](N)C[C@@]4(C)[C@H]3CC[C@@]12C", "result": "13.7% [at 11.4 µM] (inactive)"}
{"chemical.structure": "COc1ccc(-c2cc([C@H](O)[C@@H]3CCCCN3)c3ccccc3n2)cc1", "result": "3.54% [at 11.4 µM] (inactive)"}
{"chemical.structure": "c1cncc(-c2cncnc2-n2ccnc2)c1", "result": "8.83% [at 2.29 µM] (inactive)"}
